Tested on: S. flexneri
Experiment: microbe, parasite or virus in culture
Assay type: cell-based
Settings: Shigella flexneri, 24 h, read-out: IC50 S. flexneri
Assay metric: IC50 (µM)
Numbers only; they are read as µM.

Can you look up IC50 on S. flexneri for CCCn1nnnc1NC(=O)c1cccc(Cl)c1 [Compound F2, reference compound] ?
5.95

Value source: patent US8975288B2
